# parasite growth remaining, % of DMSO control (lower = more inhibition) listing for each entry below
- EXPERIMENT DESCRIPTION: qHTS profiling of the MIPE4 collection as inhibitors of Plasmodium falciparum (DD2) proliferation (AID 743345)
- CONDITION CONTEXT: P. falciparum Dd2 in erythrocytes, SYBR Green DNA, 72 h; at 28.5 µM (top of the series) unless noted
Numeric answer only, unit % assumed.

Previously resolved entries follow.
O=c1c(O)c(-c2ccc(O)cc2)oc2cc(O)cc(O)c12    97.3
C[C@]12CCC3c4ccc(O)cc4CCC3C1CCC2=O (stereo partly specified)    75.4
Clc1ccc(COC(Cn2ccnc2)c2ccc(Cl)cc2Cl)cc1 (stereo unspecified)    6.85

Now for another entry.
Query string: Name the recorded parasite growth remaining, % of DMSO control (lower = more inhibition) of the compound listed here: `O=C(Nc1cccc(Br)c1)c1cccc(S(=O)(=O)N2CCCCCC2)c1`
Result string: 51.8

====

Examples of compounds with documented Potency follow.
- EXPERIMENT DESCRIPTION: Quantitative High-Throughput drug screen in 47 multiple myeloma cell lines against the NCATS MIPE library collection: MMM1_PLB cell viability assay (AID 1918976); note: potency is the fitted concentration of half-maximal effect; nearly all actives have a fitted effect of over 35% in size
- CONDITION CONTEXT: MMM1 myeloma cells viability, CellTiter-Glo, 48 h; series mostly up to 45.8 µM
- From the text: PI: Beverly A. Mock Ph.D. Laboratory of Cancer Biology and Genetics, Center for Cancer Research, National Cancer Institute, National Institute of Health, Bethesda, Maryland […] 5; Detector; 425V; Luminescence; Viewlux PerkinElmer. […] 1. […] Briefly, the corresponding myeloma cell lines were screened in 1,536-well plates with 500 cells, 5-uL per well for inhibition of cell viability (assessed by measuring ATP levels with CellTiterGlo). […]
Results filed as inconclusive are left out. Calls of active or inactive are those of the source. The call rests on the fitted dose curve; in most records, active means well fitted cell-killing curve with a large enough effect; inconclusive means small, poorly fitted or top-dose-only effect, or effect the other way; inactive means no such curve, though single readings can be large or run the other way.

Cc1[nH]c(C=C2C(=O)Nc3ccc(S(=O)(=O)Cc4c(Cl)cccc4Cl)cc32)c(C)c1C(=O)N1CCC[C@H]1CN1CCCC1    23.5 µM (active)
O=C(Nc1cccc(Br)c1)c1cccc(S(=O)(=O)N2CCCCCC2)c1    18.7 µM (active)
CC(C)n1nc(-c2ccc3oc(N)nc3c2)c2c(N)ncnc21    0.0026 µM (active)
CCOc1ccc(Nc2nc(-c3c(C)nc4ccccn34)cs2)cc1    20.9 µM (active)
Nc1ncnc2c1nc(Cl)n2[C@@H]1O[C@H](CO)[C@@H](O)[C@@H]1O    18.7 µM (active)

Query string: State, in one line, measured Potency of `O=C1NC(=O)C(=Cc2ccc(-c3ccc(F)cc3)o2)S1`
Result string: 11.8 µM (active)

====

- EXPERIMENT DESCRIPTION: qHTS of pediatric cancer cell lines to identify multiple opportunities for drug repurposing: Confirmatory screen for Rh41 cells (AID 1347123);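 note: 48 h compound exposure; nearly all actives have a fitted effect of over 60% in size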; note: potency is the fitted concentration of half-maximal effect
- CONDITION CONTEXT: Rh41 rhabdomyosarcoma cells, viability/cytotoxicity qHTS; series mostly up to 45.9 µM
Inconclusive results are not listed. Active and inactive are the calls of the source. The call rests on the fitted dose curve; in most records, active means well fitted cell-killing curve with a large enough effect; inconclusive means small, poorly fitted or top-dose-only effect; inactive means no such curve, though single readings can be large or run the other way.
ASSAY ENDPOINT: Potency

Oc1ccc(C2CCN(c3ccnc4ccccc34)CC2)cc1O    5.85 µM (active)
CC(C)n1nc(-c2ccc3oc(N)nc3c2)c2c(N)ncnc21    0.0293 µM (active)
CC=C(C)C(=O)O[C@H]1C(C)=C[C@]23C(=O)[C@@H](C=C(CO)[C@@H](O)[C@]12O)[C@H]1[C@@H](C[C@H]3C)C1(C)C    13.1 µM (active)
COc1cc2ncnc(Nc3ccc(F)c(Cl)c3)c2cc1OCCCN1CCOCC1    26.9 µM (active)
O=C(O)c1ccc(-c2cc3cccnc3c(-c3ccc4nonc4c3)n2)cc1    7.37 µM (active)

Query string: Using the record for `CC1(C)CCC2=C(O1)c1ccccc1C(=O)C2=O` , state its measured Potency.
Result string: 8.27 µM (active)

Query string: Note Potency for the molecule shown: `N[C@@]1(C(=O)O)CS(=O)(=O)[C@H]2[C@H](C(=O)O)[C@H]21`
Result string: inactive

Query string: Give the value of Potency reported for the following: `O=C(NCc1ccncc1)C12C[C@H]3C[C@@H](C1)CC(c1ccc(Cl)cc1)(C3)C2`
Result string: 14.7 µM (active)

Query string: Tell me measured Potency for Cc1nnc(C(C)C)n1C1C[C@H]2CC[C@@H](C1)N2CC[C@H](NC(=O)C1CCC(F)(F)CC1)c1ccccc1 (some centres undefined) please.
Result string: inactive

====

- EXPERIMENT DESCRIPTION: qHTS of pediatric cancer cell lines to identify multiple opportunities for drug repurposing: Confirmatory screen for A673 cells (AID 1347110);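 note: cells exposed to compound for 48 h before the viability read; nearly all actives have a fitted effect of over 65% in size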
- CONDITION CONTEXT: A673 Ewing sarcoma cell viability; series mostly up to 45.9 µM
Results filed as inconclusive are left out. Active and inactive are the calls of the source. The call rests on the fitted dose curve; in most records, active means well fitted cell-killing curve with a large enough effect; inconclusive means small, poorly fitted or top-dose-only effect; inactive means flat fitted curve, though single readings scatter.
Pick from active, inactive when you respond.

Sample answers from the record:
CC1(C)CCC[C@@]2(C)[C@@H]1CC[C@@]1(C)OC(=O)C[C@H]21    inactive
Oc1ccc(C2CCN(c3ccnc4ccccc34)CC2)cc1O    active
CC(C)(C(=O)NCC(F)(F)C(F)(F)F)C(=O)N[C@@H]1C(=O)Nc2ccccc2-c2ccccc21    inactive
COc1cc(N2CCC(N3CCN(C)CC3)CC2)ccc1Nc1ncc(Cl)c(Nc2ccccc2S(=O)(=O)C(C)C)n1    active
NC1=N[C@@]2(c3cc(NC(=O)c4ccc(F)cn4)ccc3F)COC[C@@H]2CS1    inactive

Query string: Status in this test for `COc1ccc2c(Oc3ccc(NC(=O)c4c(C)n(CC(C)(C)O)n(-c5ccccc5)c4=O)cc3F)ccnc2c1` ?
Result string: active

Query string: How was `Cc1[nH]c(C=C2C(=O)Nc3ccc(S(=O)(=O)Cc4c(Cl)cccc4Cl)cc32)c(C)c1C(=O)N1CCC[C@H]1CN1CCCC1` classified in this test?
Result string: active

====

- System: MKL-1
- EXPERIMENT DESCRIPTION: qHTS assay to identify novel small-molecules to repurpose for Merkel cell carcinoma treatment (AID 1296009); note: nearly all actives have a fitted effect of over 60% in size
- CONDITION CONTEXT: MCC and control cell lines, CellTiter-Glo viability, 72 h; series mostly up to 46 µM
- From the text: MCC is a rare and aggressive neuroendocrine skin cancer with limited treatment options. Approximately 80% of MCCs have the Merkel cell polyomavirus (MCPyV) DNA integrated into the host genome (virus-positive: VP-MCC) and viral oncogenes drive oncogenesis. The remaining MCCs are virus-negative (VN-MCC) and are caused by UV mutagenesis. […] Using cell viability as a readout (CellTiter-Glo assay) we found both overlapping and distinct drugs that can be repurposed for the treatment of VP-MCC and VN-MCC. […]
Records with an inconclusive call do not appear. Calls of active or inactive are those of the source. Calls follow the shape of the dose curve; as a rule, active = well fitted inhibition curve with a large enough effect; inconclusive = small, poorly fitted or top-dose-only effect; inactive = flat fitted curve, though single readings scatter.
Please answer using one outcome listed in class 1 for active, class 0 for inactive

c1ccc2c(Cc3c[nH]c4ccccc34)c[nH]c2c1    class 0

Query string: Tell me the assay call for `NC(=O)c1cccc2[nH]c(-c3ccc([C@H]4CCCN4)cc3F)nc12` please.
Result string: class 1

Query string: Please indicate how the test categorized `CC(C)(C)COc1ccc(-n2cc(C(=O)O)cn2)cc1C#N` .
Result string: class 0

====

- EXPERIMENT DESCRIPTION: Quantitative High-Throughput drug screen in 47 multiple myeloma cell lines against the NCATS MIPE library collection: OPM1_PLB cell viability assay (AID 1918989); note: nearly all actives have a fitted effect of over 40% in size; note: potency is the fitted concentration of half-maximal effect
- CONDITION CONTEXT: CellTiter-Glo, 48 h; series mostly up to 45.8 µM
Results filed as inconclusive are left out. Activity calls are given as the source filed them. Calls follow the shape of the dose curve; as a rule, active = well fitted cell-killing curve with a large enough effect; inconclusive = small, poorly fitted or top-dose-only effect, or effect the other way; inactive = no such curve, though single readings can be large or run the other way.
ASSAY ENDPOINT: Potency

COCCOc1nc(-c2ccc(Cl)c(Cl)c2)n(-c2ccc(NC(=O)CCl)cc2)n1    20.9 µM (active)
CO[C@H]1C=CC=C(C)C(=O)NC2=CC(=O)C(NCCN(C)C)=C(C[C@@H](C)C[C@H](OC)[C@@H](O)[C@@H](C)C=C(C)[C@@H]1OC(N)=O)C2=O    0.0662 µM (active)
COc1cc(Nc2ncc(F)c(Nc3ccc4c(n3)NC(=O)C(C)(C)O4)n2)cc(OC)c1OC    1.87 µM (active)
CCOC(=O)C1=C(N)Oc2ccc(Br)cc2C1C(C#N)C(=O)OCC (configuration not stated)    23.5 µM (active)
Oc1ccc(C2=Cc3ccc(O)cc3OC2)cc1    1.48 µM (active)
NC(=O)c1ccc2nc(-c3ccc(Oc4ccc(Cl)cc4)cc3)[nH]c2c1    6.62 µM (active)
CC(C)(C)OC(=O)N[C@H]1CCCCCC=C[C@@H]2C[C@@]2(C(=O)NS(=O)(=O)C2CC2)NC(=O)[C@@H]2C[C@@H](OC(=O)N3Cc4cccc(F)c4C3)CN2C1=O    inactive
O=C(NCc1ccccc1)c1csc(Nc2ccncn2)n1    13.2 µM (active)

Next molecule, Potency to be filled in.
Query string: Tell us which Potency value is on record for `COc1ccc(-c2nc(N3CCOCC3)c3sc(CN(C)c4ncc(C(=O)NO)cn4)cc3n2)cn1`
Result string: inactive
